meta.source: PubChem BioAssay AID588458

# Target or system: DNA (cytosine-5)-methyltransferase 1 (Homo sapiens) (UniProt P26358)
# Sequence (P26358 504-1616 limits assumed): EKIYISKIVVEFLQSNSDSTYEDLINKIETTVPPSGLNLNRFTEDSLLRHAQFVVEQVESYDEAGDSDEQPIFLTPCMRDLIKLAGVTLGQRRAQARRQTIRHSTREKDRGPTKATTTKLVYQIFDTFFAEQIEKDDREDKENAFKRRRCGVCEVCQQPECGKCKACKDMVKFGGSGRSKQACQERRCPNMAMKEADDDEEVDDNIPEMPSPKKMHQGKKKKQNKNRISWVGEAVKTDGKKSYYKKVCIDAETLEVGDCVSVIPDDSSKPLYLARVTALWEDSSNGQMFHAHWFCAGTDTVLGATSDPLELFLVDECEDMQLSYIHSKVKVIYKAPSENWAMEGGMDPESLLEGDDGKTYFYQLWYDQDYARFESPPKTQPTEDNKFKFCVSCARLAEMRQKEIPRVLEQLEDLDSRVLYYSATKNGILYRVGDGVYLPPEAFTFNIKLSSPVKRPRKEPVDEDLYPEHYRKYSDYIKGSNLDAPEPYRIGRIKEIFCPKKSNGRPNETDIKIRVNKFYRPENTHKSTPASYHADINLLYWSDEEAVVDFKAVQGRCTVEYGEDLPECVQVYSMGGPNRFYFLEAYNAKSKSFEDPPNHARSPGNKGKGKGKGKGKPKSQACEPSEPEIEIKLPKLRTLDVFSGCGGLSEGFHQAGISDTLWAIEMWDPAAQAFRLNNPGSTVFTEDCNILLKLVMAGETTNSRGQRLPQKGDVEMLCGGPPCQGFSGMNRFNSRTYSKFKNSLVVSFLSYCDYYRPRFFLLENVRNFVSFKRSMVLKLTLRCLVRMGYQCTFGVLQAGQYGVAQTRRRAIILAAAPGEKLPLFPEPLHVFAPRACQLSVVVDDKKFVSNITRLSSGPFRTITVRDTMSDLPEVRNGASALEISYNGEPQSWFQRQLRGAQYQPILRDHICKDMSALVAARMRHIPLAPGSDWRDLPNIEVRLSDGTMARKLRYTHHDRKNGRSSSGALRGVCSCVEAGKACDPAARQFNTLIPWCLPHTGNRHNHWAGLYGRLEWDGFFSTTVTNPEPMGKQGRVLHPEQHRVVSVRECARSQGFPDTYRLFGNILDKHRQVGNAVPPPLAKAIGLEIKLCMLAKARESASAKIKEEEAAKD
# Assay name: inhibition of DNA methyltransferase DNMT1 – biochemical, molecular beacon, fluorescence, HinP1I cleavage, uHTS, primary screen (AID 588458)
# Experimental context: at 10 µM, hits give high values
Screen size: about 360,000 compounds; about 3,000 (0.83%) were called active. The list comes from a sample in which actives are over-represented; it also holds close analogues and randomly drawn compounds.
Assay metric: inhibition (reported as % activation of signal) (%)
Answers are plain numbers, in %.

[
  {
    "Molecule": "CCN(CC)C(=O)CSc1nnc(-c2ccc(S(=O)(=O)NCc3ccccc3Cl)cc2)o1",
    "Experimental result": 4.4
  },
  {
    "Molecule": "O=C(c1ccccc1Cl)N(Cc1ccccc1F)N1C(=O)CCCC1=O",
    "Experimental result": 1.73
  },
  {
    "Molecule": "COc1ccc(OCC(=O)NNC(=O)C2CCC2)cc1",
    "Experimental result": 0.09
  },
  {
    "Molecule": "CCCCCCc1cc2cc(-c3nnc(-c4ccccc4)o3)c(=O)oc2cc1O",
    "Experimental result": 88.6
  },
  {
    "Molecule": "CCN(CC)S(=O)(=O)c1ccc(NC(=O)c2cccnc2Cl)c(NC(=O)c2cccnc2Cl)c1",
    "Experimental result": -0.07
  },
  {
    "Molecule": "COc1ccc(NC(=O)CCn2ccnc2)c(OC)c1",
    "Experimental result": 78.8
  },
  {
    "Molecule": "Cc1ccc(Cc2cncc(O)c2)cc1S(=O)(=O)O",
    "Experimental result": 50.3
  },
  {
    "Molecule": "NC(=O)C1CCCN(CC(=O)N2CCN(c3ccccc3)CC2)C1 (configuration not stated)",
    "Experimental result": 1.67
  },
  {
    "Molecule": "O=C(COC(=O)c1cc(=O)[nH]c2ccccc12)Nc1nc(-c2cccc(Br)c2)cs1",
    "Experimental result": -21.4
  },
  {
    "Molecule": "COc1ccc(NC(=O)COC(=O)c2ccncc2)c(OC)c1",
    "Experimental result": 7.14
  }
]

Give one value of inhibition (reported as % activation of signal) per listed molecule.
1. CCCCC(=O)N(c1ccc(OC)cc1)C1C=CS(=O)(=O)C1 (configuration not stated)
2. S=C(NCCCc1ccccc1)Nc1ccc(Br)cc1
3. Cc1cc(O)c(C(=O)/C=C/c2c(F)c(F)c(F)c(F)c2F)c(=O)o1
4. Cc1ccc(C(=O)O)cc1-c1ccc(/C=C2\SC(=O)N(CC(=O)Nc3ccc4c(c3)OCO4)C2=O)o1
5. c1ccc2c(-c3nn4nnnc4c4ccccc34)cccc2c1
6. CC(C)(C)OC(=O)C[C@@H]1C/C=C\C[C@@H](CC(=O)N[C@@H](CO)Cc2ccccc2)C(=O)N2CCC[C@H]2COC1=O

1. -1.75
2. 6.06
3. 59.4
4. 12.5
5. -1.65
6. 1.28

Give one value of inhibition (reported as % activation of signal) per listed molecule.
1. CCc1ccc(NC(=O)CS(=O)CC(=O)NCCCc2ccccc2)cc1 (configuration not stated)
2. O=C(COC(=O)c1ccncc1)c1ccccc1
3. COc1ccc(/C=C/C(=O)c2c(O)cc(OC)cc2OC)cc1
4. CCCOc1ccc2c3c(c(=O)oc2c1OCCC)CCC3
5. N#Cc1ccccc1CN1C(=O)S/C(=C/c2cccn2-c2cccc(C(=O)O)c2)C1=O

[58.9, -0.53, -2.91, 5.15, 102]

If you can, please state the reported inhibition (reported as % activation of signal) value of COc1ccc(C)cc1N(C(=O)Cn1nnc(-c2ccc(C)o2)n1)C(C(=O)NC1CCCC1)c1ccncc1 (configuration not stated) .
0.4
